# Tested on: HCT-116
# experimental protocol: NCI tumour cell line growth inhibition, 48 h
The source made the active and inactive calls. Cut-off read from the data, not from the text of the source: active = GI50 up to about 1.1 µM and inactive = higher.
metric name: GI50

These solved cases illustrate the format of a correct answer.
molecule: CN(CCCNC(=O)c1n[nH]c2c1ccc1ccccc12)CCCNC(=O)c1n[nH]c2c1ccc1ccccc12
target or test system: HCT-116
metric name: GI50
result: 12.7 µM (inactive)
//
molecule: O=C1C=CC(=O)c2c(O)nc(CBr)nc21
target or test system: HCT-116
metric name: GI50
result: 56.8 µM (inactive)
//
molecule: C[n+]1c2ccccc2c(/C=N\NS(=O)(=O)c2ccc(Cl)cc2)c2ccccc21
target or test system: HCT-116
metric name: GI50
result: 33.7 µM (inactive)
//
molecule: Cc1cccc(N/C(Sc2ccccc2)=C(/C(Cl)=C(Cl)Cl)[N+](=O)[O-])c1
target or test system: HCT-116
metric name: GI50
result: 15.3 µM (inactive)
//
molecule: c1ccc(NC[Si]23OCCN(CCO2)CCO3)cc1
target or test system: HCT-116
metric name: GI50
result: > 100 µM (inactive)
//
molecule: CC1(C)CC(=O)C2(CC(CSc3ccccc3)C(CS(=O)(=O)c3ccccc3)C2)C(=O)C1 (stereo unspecified)
target or test system: HCT-116
metric name: GI50
result: > 100 µM (inactive)

[Q] # GI50 lookup, item NC(=S)N/N=C/C(O[C@@H](/C=N/NC(N)=S)CO)n1cnc2c(N)ncnc21 (stereo partly specified)
[A] 24.4 µM (inactive)

[Q] What do you have for CCOC(=O)C1S(=O)(=O)OCCOS1(=O)=O ?
[A] > 100 µM (inactive)

[Q] What do you have for C=C(Br)N(CC)CC ?
[A] > 100 µM (inactive)

[Q] What do you have for O=S(=O)(F)Cc1ccccc1 [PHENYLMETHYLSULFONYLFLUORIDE] ?
[A] > 100 µM (inactive)

[Q] What do you have for Nc1nc(N)nc(CCCc2nc(N)nc(N)n2)n1 ?
[A] > 100 µM (inactive)

---

# Tested on: SW-620
# experimental protocol: NCI tumour cell line growth inhibition, 48 h
Active and inactive are the calls of the source. Rule as the data show it: active = GI50 up to about 1.1 µM and inactive = higher.
The reply should be one of these categories: active, inactive

molecule: CC1(C)Oc2ccccc2OC1O (stereo unspecified)
assigned class: inactive

Okay, now this molecule:
[Q] Recorded test call requested for COc1ccc2c(c1)CC1Cc3cc(OC)c(OC)cc3CN1CC2 (stereo unspecified)
[A] inactive

---

Parameter GI50: see the listing below.
# System: HL-60
# experimental protocol: NCI tumour cell line growth inhibition, 48 h
Active and inactive are the calls of the source. No stated cut-off is given here; in the data, active = GI50 up to about 1.1 µM and inactive = higher.

These solved cases illustrate the format of a correct answer.
compound: O=S(=O)(N/N=C/c1c(Cl)cccc1Cl)c1ccccc1
metric name: GI50
result: 29.9 µM (inactive)
//
compound: COc1ccc2c(c1)CC1Cc3cc(OC)c(OC)cc3CN1CC2 (stereo unspecified)
metric name: GI50
result: 11.1 µM (inactive)
//
compound: CCOC(=O)/C(=C\c1ccc(F)cc1)C(C)=O
metric name: GI50
result: 19.5 µM (inactive)
//
compound: COC(=O)c1ncc2c(=O)[nH]c3ccccc3c2c1C(=O)OC
metric name: GI50
result: > 100 µM (inactive)
//
compound: FC1CCN(C2(c3cccs3)CCCCC2)CC1
metric name: GI50
result: > 100 µM (inactive)
//
compound: CC(C)(C)c1ccc(-n2c3nc(=O)n(-c4ccccc4CO)c(=O)c-3cc3ccccc32)cc1
metric name: GI50
result: 23.8 µM (inactive)
//
compound: O=C(NO)c1cccc(OCc2ccc(Br)cc2)c1
metric name: GI50
result: 3.01 µM (inactive)
//
compound: Cn1c(S)nc2c(Cl)cc(Cl)cc2c1=O
metric name: GI50
result: 18.2 µM (inactive)
//
compound: O=c1[nH]cc(/C=N\Nc2ccccc2)c(=O)[nH]1
metric name: GI50
result: 5.78 µM (inactive)
//
compound: Cc1cc(O)nc(NN2C(Cl)C(=O)C2c2cccc([N+](=O)[O-])c2)n1 (stereo unspecified)
metric name: GI50
result: 13.5 µM (inactive)

[Q] # GI50 lookup, item N#Cc1ccc(-c2nc3c(N)nc(-c4ccccc4)nc3o2)cc1
[A] > 100 µM (inactive)

[Q] What do you have for CCOC(=O)NC(=O)c1cn(CCCOC(=O)CCCCCCCCC(=O)OCCCn2cc(C(=O)NC(=O)OCC)c(=O)[nH]c2=O)c(=O)[nH]c1=O ?
[A] 5.14 µM (inactive)

[Q] What do you have for CN(C)c1ccc2c3c(c(=O)oc2c1)CCC3 ?
[A] 26.9 µM (inactive)

[Q] What do you have for CCOc1ccc(NC(=O)C(=O)C2C(=O)Nc3ccccc3[S+]2[O-])cc1 (stereo unspecified) ?
[A] > 100 µM (inactive)

---

# System: MDA-MB-435
# experimental protocol: NCI tumour cell line growth inhibition, 48 h
Activity calls are given as the source filed them. Cut-off read from the data, not from the text of the source: active = GI50 up to about 1.1 µM and inactive = higher.
The reply should be one of these categories: active, inactive

compound: Cc1ccc(S(=O)(=O)NN=C2CCCCCCCCCCC2)cc1
target or test system: MDA-MB-435
assigned class: inactive
//
compound: O=C(O)C1CC2C3CCC2C1C3=O (stereo not given)
target or test system: MDA-MB-435
assigned class: inactive
//
compound: CC1/C(=N/O)CC(c2ccccc2)N(N=O)C1c1ccccc1 (stereo not given)
target or test system: MDA-MB-435
assigned class: inactive
//
compound: O=C1NC(=O)/C(=C/c2ccc(S(=O)(=O)N/N=C\C(O)C(O)C(O)C(O)CO)cc2)N1 (stereo not given)
target or test system: MDA-MB-435
assigned class: inactive
//
compound: COc1ccc2[nH]c3c(C)c4ccnc(NCCCN(C)CCCNc5ccc6ncn7c8ccccc8c(=O)c5c67)c4c(C)c3c2c1
target or test system: MDA-MB-435
assigned class: active
//
compound: CCOC(=O)/C=C(\C(=O)OCC)n1cc(C)c(=O)n(Cc2cnnn2CCCCOC(C)=O)c1=O
target or test system: MDA-MB-435
assigned class: inactive
//
compound: CCOC(=O)/C(C(N)=O)=C(O)/C(O)=C/C(=O)c1ccc(Cl)cc1
target or test system: MDA-MB-435
assigned class: inactive
//
compound: COc1ccc2nc(-c3ccc(O)cc3)cn2c1
target or test system: MDA-MB-435
assigned class: inactive

[Q] Recorded test call requested for COc1ccc2c(c1)CC1Cc3cc(OC)c(OC)cc3CN1CC2 (stereo not given)
[A] inactive

[Q] What do you have for CCCCCCCCCCCCCCCC(=O)N(CCCCCCCCCCC(=O)O)CC(O)C(O)C(OC1OC(CO)C(O)C(O)C1O)C(O)CO (stereo not given) ?
[A] inactive

---

# Test system: NCI-H226
# experimental protocol: NCI tumour cell line growth inhibition, 48 h
Activity calls are given as the source filed them. No stated cut-off is given here; in the data, active = GI50 up to about 1.1 µM and inactive = higher.
Parameter GI50: see the listing below.

compound: CCOC(=O)c1ccc(C(=O)C(C(C)=O)C(=O)OC(C)(C)C)[nH]1 (stereo not drawn)
target or test system: NCI-H226
result: > 100 µM (inactive)
//
compound: CC1(C)OC[C@@H](O)[C@H](Br)CO1
target or test system: NCI-H226
result: > 100 µM (inactive)
//
compound: Nc1ccc(S(=O)(=O)Nc2nc3ccccc3nc2Nc2ccc(S(N)(=O)=O)cc2)cc1
target or test system: NCI-H226
result: 56.4 µM (inactive)
//
compound: O=C(CC(=O)c1cccc2ccccc12)C(=O)Nc1ccc(Cl)cc1
target or test system: NCI-H226
result: > 100 µM (inactive)
//
compound: CC(=O)OC1COC(n2c(N)c(C#N)c(C)c(C#N)c2=S)C(OC(C)=O)C1OC(C)=O (stereo not drawn)
target or test system: NCI-H226
result: > 100 µM (inactive)

[Q] # GI50 lookup, item NC(=S)N/N=C/C(O[C@@H](/C=N/NC(N)=S)CO)n1cnc2c(N)ncnc21 (stereo partly drawn)
[A] > 100 µM (inactive)

---

Parameter GI50: see the listing below.
# Tested on: TK-10
# experimental protocol: NCI tumour cell line growth inhibition, 48 h
Calls of active or inactive are those of the source. No stated cut-off is given here; in the data, active = GI50 up to about 1.1 µM and inactive = higher.

compound: CN(Cc1ccccc1)c1cc(=O)n(C)c(=O)[nH]1
result: > 100 µM (inactive)

compound: O=C(O)C(Cc1ccccc1)Cc1ccccc1
result: > 100 µM (inactive)

compound: CCOP1(=O)C=C(C)C(=C(Cl)Cl)C(C)=C1 (stereo unspecified)
result: 21.3 µM (inactive)

compound: COC1CC(=O)C2C(=O)N(c3ccccc3)C(=O)C23C(C(=O)c2ccccc2)=C(C)NC13O (stereo unspecified)
result: 6.32 µM (inactive)

compound: O=C1OCc2c1cc1ccc(O)c(OC3OC(CO)C(O)C(O)C3O)c1c2-c1ccc2c(c1)OCO2 (stereo unspecified)
result: > 100 µM (inactive)

[Q] # GI50 lookup, item O=C1c2sc(-c3ccc(F)cc3)cc2-n2cccc21
[A] 21.9 µM (inactive)

[Q] What do you have for C=C(Cl)C(=C)CCC(Cl)C(C)C (stereo unspecified) ?
[A] > 100 µM (inactive)

[Q] What do you have for O=C1CSC(c2ccc(Cl)cc2Cl)N1c1ccc(Oc2ccc(Cl)cc2)c(Cl)c1 (stereo unspecified) ?
[A] 51.4 µM (inactive)

[Q] What do you have for O=c1[nH]c2cc(C(F)(F)F)ccc2nc1C(F)(F)F ?
[A] 49.7 µM (inactive)

[Q] What do you have for CCN(CC)C(=O)c1ccc(C)c(/N=N/N(C)C)c1 ?
[A] > 100 µM (inactive)

[Q] What do you have for Cc1cc(NS(=O)(=O)c2ccc(Nc3c4ccccc4nc4c(C(=O)NCCO)cccc34)cc2)no1 ?
[A] 35.6 µM (inactive)
